Value source: patent US20200109188A1

Target: HA of ca A/teal/Hong Kong/W312/97 (H6N1) virus (influenza A virus)
Assay: cell-based or functional assay
Below: a set of entries, each annotated with reported Neutralization IC50, H6-HK97.
Could you give the number and then its unit, please?

{"BINDER": "Antibody 12 (antibody, V domains shown) VH: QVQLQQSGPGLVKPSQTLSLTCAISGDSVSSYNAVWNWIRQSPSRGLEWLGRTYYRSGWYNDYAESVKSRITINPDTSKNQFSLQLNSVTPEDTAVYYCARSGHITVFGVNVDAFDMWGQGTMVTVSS VL: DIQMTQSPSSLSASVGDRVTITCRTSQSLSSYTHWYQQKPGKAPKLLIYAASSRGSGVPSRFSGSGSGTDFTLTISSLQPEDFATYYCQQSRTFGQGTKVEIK", "MEASURED VALUE": "0.45 µg/mL"}
{"BINDER": "Antibody 15 (antibody, V domains shown) VH: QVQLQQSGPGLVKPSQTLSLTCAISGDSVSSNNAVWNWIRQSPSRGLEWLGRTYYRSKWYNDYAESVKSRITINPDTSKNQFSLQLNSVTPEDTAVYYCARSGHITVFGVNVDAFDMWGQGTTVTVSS VL: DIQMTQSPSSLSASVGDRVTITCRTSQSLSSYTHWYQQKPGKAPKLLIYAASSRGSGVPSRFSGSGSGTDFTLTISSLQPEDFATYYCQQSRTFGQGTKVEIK", "MEASURED VALUE": "0.33 µg/mL"}
{"BINDER": "Antibody 13 (antibody, V domains shown) VH: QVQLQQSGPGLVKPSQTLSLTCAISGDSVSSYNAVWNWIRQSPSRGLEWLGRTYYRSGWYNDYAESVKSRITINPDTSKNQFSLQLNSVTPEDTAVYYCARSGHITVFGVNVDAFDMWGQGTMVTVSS VL: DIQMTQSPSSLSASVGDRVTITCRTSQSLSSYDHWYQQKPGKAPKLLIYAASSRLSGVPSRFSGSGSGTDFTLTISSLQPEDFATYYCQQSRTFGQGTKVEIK", "MEASURED VALUE": "0.55 µg/mL"}

Name the recorded Neutralization IC50, H6-HK97 for Antibody 11 (antibody, V domains shown) VH: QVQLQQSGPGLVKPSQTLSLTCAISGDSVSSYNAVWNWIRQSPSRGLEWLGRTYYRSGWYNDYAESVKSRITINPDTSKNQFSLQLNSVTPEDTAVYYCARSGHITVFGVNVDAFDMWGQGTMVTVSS VL: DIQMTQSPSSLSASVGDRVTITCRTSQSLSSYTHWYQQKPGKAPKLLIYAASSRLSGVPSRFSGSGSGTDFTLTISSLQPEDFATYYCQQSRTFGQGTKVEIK .
0.4 µg/mL
